B1: WEE1 (parent)
chain: FISRTSIPNAASEEGDEDDWASNK

variants of: B1; experiment: protein stability index of a GFP-peptide fusion (GPS, HEK-293T) (PSI 1-6); higher = more stable; settings: c terminus: a fixed tail appended;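 also: lentivirally expressed fusions sorted by FACS into six bins by GFP to DsRed ratio, PSI derived from sequencing read proportions per bin multiplied by bin number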
Would you kindly list protein stability index for each of these variants?
Lab note: jot the number down without any unit.

Ask: May I ask what protein stability index has been recorded for FISRTSIPNAASEEGDEDDWSSNK [A21S] ?
Reply: 4.1

Ask: Given the variant FISRTSIPNAASEEGFEDDWASNK [D16F] , what is its reported protein stability index?
Reply: 3.63

Ask: Fill in: protein stability index of FISRTSIPNAASEEGDEDDWASNW [K24W] is ___
Reply: 2.94

Ask: Entry FISRTSIPNAASEEGNEDDWASNK [D16N] has what protein stability index?
Reply: 3.8

Ask: Which protein stability index value belongs to FISRTSIPNAASEEGDEDPWASNK [D19P] ?
Reply: 3.37

Ask: Look up protein stability index for this variant: FISRTSIPNATSEEGDEDDWASNK [A11T]
Reply: 4.19

Ask: What value of protein stability index has been recorded for this entry: QISRTSIPNAASEEGDEDDWASNK [F1Q]
Reply: 5.63

Ask: Using the record for FISRTSIPNAASEEGDEDDWASCK [N23C] , report its protein stability index.
Reply: 3.73

Ask: Find the recorded protein stability index belonging to FISRTSIPNAAGEEGDEDDWASNK [S12G] and report it.
Reply: 4.13

Ask: Give its protein stability index value. Item: FESRTSIPNAASEEGDEDDWASNK [I2E]
Reply: 5.59

Ask: Given FISRTSIWNAASEEGDEDDWASNK [P8W] , state its recorded protein stability index.
Reply: 2.01

Ask: # query: protein stability index of entry FISRTSIPNAASFEGDEDDWASNK [E13F]
Reply: 3.65

Ask: Bench note: what protein stability index did FISRTSIINAASEEGDEDDWASNK [P8I] show?
Reply: 3.82

Ask: # get_value(readout='protein stability index', item= GISRTSIPNAASEEGDEDDWASNK [F1G] )
Reply: 5.71

Ask: Look up protein stability index for this variant: FISRTSIPNAASEEGDEDCWASNK [D19C]
Reply: 3.34

Ask: Fill in: protein stability index of FIDRTSIPNAASEEGDEDDWASNK [S3D] is ___
Reply: 4.67

Ask: What measured protein stability index goes with FISRTSPPNAASEEGDEDDWASNK [I7P] ?
Reply: 4.79

Ask: Using the record for FISRTSIPNAASEEGDEDDDASNK [W20D] , report its protein stability index.
Reply: 4.92

Ask: What does the data say about its protein stability index? Entry: FISRTSYPNAASEEGDEDDWASNK [I7Y]
Reply: 2.72

Ask: Given the variant FISRTSIPNAASGEGDEDDWASNK [E13G] , what is its reported protein stability index?
Reply: 3.78

Ask: Field request: protein stability index | item: FISRTSIPNAASEEGDEDDWATNK [S22T]
Reply: 4.23

Ask: // returns reported protein stability index for input FISRTSISNAASEEGDEDDWASNK [P8S]
Reply: 4.05
